- Tested on: 786-0
- ASSAY EXPLANATION: Growth inhibition of human 786-0 cells assessed as cell growth at 100 uM incubated for 48 hrs by sulforhodamine B assay relative to control
- Type: functional
- PARTICULARS: read-out: Activity
Flag rule - growth at 100 µM less than 20% flags TRUE; the remaining entries get FALSE.

[Q] # strict comparison: is reported growth at 100 µM < 20%? input = CN1CCc2nc3sc(C(N)=O)c(N)c3c(-c3cccs3)c2C1
[A] TRUE

[Q] # strict comparison: is reported growth at 100 µM < 20%? input = Nc1c(C(=O)Nc2ccccc2)sc2nc3c(cc12)CN(Cc1ccccc1)CC3
[A] FALSE

[Q] # strict comparison: is reported growth at 100 µM < 20%? input = CCc1cccc(C)c1NC(=O)c1sc2nc3c(cc2c1N)C(=O)CCC3
[A] TRUE
